- test_target: human GLP-1 receptor (human, UniProt P43220 24-463)
- protocol_description: cell-based or functional assay
Numbered stars: 1 amine (or outer) side, 2 acyl side, 3 side chain; on linkers, the order of the positions; unused ones are H or OH. Square brackets hold non-standard residues; d marks the D form. Side chains are listed from the residue outwards. * marks the point of attachment. C20 diacid = O=C(O)CCCCCCCCCCCCCCCCCCC(=O)*; C18 diacid = O=C(O)CCCCCCCCCCCCCCCCC(=O)*; C16 diacid = O=C(O)CCCCCCCCCCCCCCC(=O)*; γGlu = O=C(O)[C@H](CCC(=O)[*:2])N[*:1]; Chem. 28 = not defined here; Chem. 29 = not defined here; AEEA = NCCOCCOCC(=O)O; Aib = CC(C)(N)C(=O)O
# binarize hGLP-1R Potency, no HSA, EC50 [pM]: threshold 20 pM inclusive, high side True, low side False

- binder: "Compound 103 (reading uncertain) peptide: H[Aib]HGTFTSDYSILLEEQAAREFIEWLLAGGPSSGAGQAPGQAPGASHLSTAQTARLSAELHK(Chem. 28)LATLPRTETGSGSP-NH2"
  classification: "False"
- binder: "Compound 58 (reading uncertain) peptide: Y[Aib]EGTFTSDYSILLEEQAAREFIEWLLAGGPSSGAGQAPGQAPLASHLSTAQTQRLSAELHK(Chem. 28)LATLPRTETGSGSP-NH2"
  classification: "False"
- binder: "Compound 13 (peptide) peptide: Y[Aib]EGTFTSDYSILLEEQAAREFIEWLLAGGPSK([AEEA-AEEA-γGlu-C18 diacid])GAPPPSGGGGASELSTAALGRLSAELHRLATLPRTETGSGSP-NH2"
  classification: "True"
- binder: "Compound 61 (peptide) peptide: H[Aib]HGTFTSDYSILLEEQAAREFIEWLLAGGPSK([AEEA-AEEA-γGlu-C16 diacid])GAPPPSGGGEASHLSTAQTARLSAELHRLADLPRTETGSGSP-NH2"
  classification: "False"
- binder: "Compound 111 (peptide) peptide: Y[Aib]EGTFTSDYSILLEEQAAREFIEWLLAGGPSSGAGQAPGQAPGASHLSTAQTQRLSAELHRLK([AEEA-AEEA-AEEA-γGlu-C18 diacid])TLPRTETGSGSP-NH2"
  classification: "False"
- binder: "Compound 114 (peptide) peptide: Y[Aib]EGTFTSDYSILLEEQAAREFIEWLLAGGPSSGAGQAPGQAPGASHLSTAALARLSAELHK([AEEA-AEEA-γGlu-C18 diacid])LATLPRTETGSGSP-NH2"
  classification: "True"
- binder: "Compound 65 (peptide) peptide: H[Aib]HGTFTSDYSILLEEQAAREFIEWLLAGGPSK([AEEA-AEEA-γGlu-C18 diacid])GEASQLSTAALGRLSAELHGLATLPRTETGSGSP-NH2"
  classification: "False"
- binder: "Compound 53 (reading uncertain) peptide: Y[Aib]EGTFTSDYSILLEEQAAREFIEWLLAGGPSSGAGQAPGQAPGASHLSTAALGRLSAELHK(Chem. 28)LATLPRTETGSGSP-NH2"
  classification: "True"
- binder: "Compound 43 (reading uncertain) peptide: H[Aib]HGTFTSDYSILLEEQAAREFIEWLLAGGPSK(Chem. 28)GEASQLSTAALGRLSAELHRLADLPRTETGSGSP-NH2"
  classification: "False"
- binder: "Compound 55 (reading uncertain) peptide: Y[Aib]EGTFTSDYSILLEEQAAREFIEWLLAGGPSSGAGQAPGQAPGASHLSTAQTQRLSAK(Chem. 28)LHRLATLPRTETGSGSP-NH2"
  classification: "True"
- binder: "Compound 50 (reading uncertain) peptide: Y[Aib]EGTFTSDYSILLEEQAAREFIEWLLAGGPSSGEASHLSTAQTQRLSAELHK(Chem. 28)LATLPRTETGSGSP-NH2"
  classification: "False"
- binder: "Compound 89 (peptide) peptide: H[Aib]HGTFTSDYSILLEEQAAREFIEWLLAGGPSSGEASHLSTAALGRLSAELHRLK([AEEA-AEEA-γGlu-C18 diacid])TLPRTETGSGSP-NH2"
  classification: "False"
- binder: "Compound 23 (reading uncertain) peptide: Y[Aib]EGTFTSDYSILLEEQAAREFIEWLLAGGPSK(Chem. 28)GALAQTLGTNEASELSTAALGRLSAELHELATLPRTETGSGSP-NH2"
  classification: "False"
- binder: "Compound 66 (peptide) peptide: H[Aib]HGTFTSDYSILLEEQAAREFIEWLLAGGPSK([AEEA-AEEA-γGlu-C18 diacid])GEASQLSTAALGRLSAELHHLATLPRTETGSGSP-NH2"
  classification: "False"
- binder: "Compound 11 (reading uncertain) peptide: Y[Aib]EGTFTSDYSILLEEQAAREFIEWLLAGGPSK(Chem. 29)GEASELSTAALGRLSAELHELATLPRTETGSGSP-NH2"
  classification: "False"
- binder: "Compound 96 (peptide) peptide: Y[Aib]EGTFTSDYSILLEEQAAREFIEWLLAGGPSGGGGEASHLSTAQTQRLSAELHK([AEEA-AEEA-γGlu-C20 diacid])LATLPRTETGSGSP-NH2"
  classification: "False"
